target_entity: B2 bradykinin receptor (Homo sapiens, UniProt P30411); note: assay procedure not described here
Sequence (P30411 whole entry): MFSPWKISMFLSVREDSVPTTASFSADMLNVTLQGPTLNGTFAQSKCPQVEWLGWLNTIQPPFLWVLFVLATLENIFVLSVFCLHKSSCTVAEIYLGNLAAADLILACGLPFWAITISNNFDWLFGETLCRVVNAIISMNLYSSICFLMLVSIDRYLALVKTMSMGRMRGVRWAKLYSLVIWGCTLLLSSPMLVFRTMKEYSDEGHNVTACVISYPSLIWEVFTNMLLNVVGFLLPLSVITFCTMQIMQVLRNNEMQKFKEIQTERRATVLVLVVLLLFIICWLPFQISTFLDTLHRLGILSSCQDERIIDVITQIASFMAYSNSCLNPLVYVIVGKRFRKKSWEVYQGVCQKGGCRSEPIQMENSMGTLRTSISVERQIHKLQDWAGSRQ
observed_property: AC50

Ask: # query: AC50 of entry CCCCOc1ccc(C(=O)CCN2CCCCC2)cc1 [DYCLONINE]
Reply: > 30 µM

Ask: Looking for the measured AC50 of CC1=C(/C=C/C(C)=C/C=C/C(C)=C/CO)C(C)(C)CCC1 [RETINOL] , can you help?
Reply: > 10 µM

Ask: Reported AC50 for COc1cc(C(=O)NS(=O)(=O)c2ccccc2C)ccc1Cc1cn(C)c2ccc(NC(=O)OC3CCCC3)cc12 [ZAFIRLUKAST] : what is it?
Reply: > 10 µM

Ask: // lookup AC50 for CNC(=C[N+](=O)[O-])NCCSCc1csc(CN(C)C)n1 [NIZATIDINE]
Reply: > 10 µM

Ask: I'd like to know its AC50. The compound in question is OC[C@H]1O[C@@H](Oc2cc(O)cc(/C=C/c3ccc(O)cc3)c2)[C@H](O)[C@@H](O)[C@@H]1O [PICEID]
Reply: > 30 µM

Ask: Which AC50 value is on record for CCC1(c2ccc(N)cc2)CCC(=O)NC1=O (stereo not drawn) [AMINOGLUTETHIMIDE] ?
Reply: > 30 µM

Ask: // lookup AC50 for COc1ccc(CN2CCN(C(c3ccc(F)cc3)c3ccc(F)cc3)CC2)c(OC)c1OC [LOMERIZINE]
Reply: > 30 µM

Ask: Consider the compound CC(C(=O)O)c1ccc2c(c1)CC(=O)c1ccccc1S2 (stereo not drawn) [ZALTOPROFEN] and give its measured AC50.
Reply: > 30 µM

Ask: Would you kindly share the measured AC50 for Cc1cc(C)nc(NS(=O)(=O)c2ccc(N)cc2)n1 [SULFAMETHAZINE] ?
Reply: > 10 µM

Ask: Which AC50 is listed for C[C@@H]1C[C@H]2[C@@H]3C[C@H](F)C4=CC(=O)C=C[C@]4(C)[C@@]3(F)[C@@H](O)C[C@]2(C)[C@@]1(OC(=O)c1ccco1)C(=O)SCF [FLUTICASONE FUROATE] ?
Reply: > 10 µM

Ask: Please report the recorded AC50 for O=c1c(O)c(-c2ccc(O)c(O)c2)oc2cc(O)cc(O)c12 [QUERCETIN] .
Reply: > 30 µM

Ask: # lookup: AC50 of C[N+](C)(C)CCOP(=O)([O-])OC[C@H](O)CO
Reply: > 30 µM

Ask: Name the reported AC50 value associated with the compound CN(C)CCCN1c2ccccc2CCc2ccccc21 [IMIPRAMINE]
Reply: > 30 µM

Ask: Item CC/C=C\C/C=C\C/C=C\C/C=C\C/C=C\CCCC(=O)OCC [ICOSAPENT ETHYL] has what recorded AC50?
Reply: > 30 µM

Ask: Requested field: AC50. Item: CC(C)(C)NCC(O)c1ccccc1Cl (stereo not drawn) [TULOBUTEROL]
Reply: > 30 µM

Ask: Need AC50, item CC(=O)[C@H]1CC[C@H]2[C@@H]3C[C@H](C)C4=CC(=O)CC[C@]4(C)[C@H]3[C@@H](O)C[C@]12C [MEDRYSONE]
Reply: > 10 µM

Ask: I have this compound here, c1ccc(C2(N3CCCCC3)CCCCC2)cc1 [PHENCYCLIDINE] , and I need its recorded AC50.
Reply: > 30 µM

Ask: Look up AC50: O=C1Cc2cc(CCN3CCN(c4nsc5ccccc45)CC3)c(Cl)cc2N1 [ZIPRASIDONE]
Reply: > 30 µM

###

Exercise: state measured AC50 for each of the molecules provided.
target_entity: Type-1 angiotensin II receptor (Homo sapiens, UniProt P30556); note: assay procedure not described here
Sequence (P30556 whole entry): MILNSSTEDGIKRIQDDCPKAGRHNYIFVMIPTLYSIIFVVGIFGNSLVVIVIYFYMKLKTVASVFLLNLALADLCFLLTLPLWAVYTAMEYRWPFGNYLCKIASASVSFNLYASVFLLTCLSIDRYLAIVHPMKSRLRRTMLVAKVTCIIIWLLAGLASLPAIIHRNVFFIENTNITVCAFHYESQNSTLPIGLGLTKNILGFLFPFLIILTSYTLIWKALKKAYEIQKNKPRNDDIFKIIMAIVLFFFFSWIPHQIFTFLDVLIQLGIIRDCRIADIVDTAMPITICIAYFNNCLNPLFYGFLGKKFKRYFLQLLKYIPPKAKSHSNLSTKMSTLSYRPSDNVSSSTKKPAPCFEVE

Ask: Fill in: AC50 of c1ccc(C2(N3CCCCC3)CCCCC2)cc1 [PHENCYCLIDINE] is ___
Reply: > 30 µM

Ask: Look up AC50 for this molecule: CCCN(CCC)S(=O)(=O)c1ccc(C(=O)O)cc1 [PROBENECID]
Reply: > 10 µM

Ask: Entry COc1ccc(CN2CCN(C(c3ccc(F)cc3)c3ccc(F)cc3)CC2)c(OC)c1OC [LOMERIZINE] : reported AC50 = ?
Reply: > 30 µM

Ask: Which AC50 value belongs to C=CC[N+]1([C@H]2C[C@H]3[C@@H]4CC[C@H]5C[C@H](O)[C@@H](N6CCOCC6)C[C@]5(C)[C@H]4CC[C@]3(C)[C@H]2OC(C)=O)CCCC1 [ROCURONIUM] ?
Reply: 1.2 µM

Ask: // AC50 lookup, key: CCC1(CCC(C)C)C(=O)NC(=O)NC1=O [AMOBARBITAL]
Reply: > 10 µM

Ask: Record request: AC50 value, item Cc1cc(=O)n(-c2ccccc2)n1C [ANTIPYRINE]
Reply: > 30 µM

Ask: Find the recorded AC50 belonging to CC(CN(C)C)C(C)(O)Cc1ccc(Cl)cc1 (stereo not given) [CLOBUTINOL] and report it.
Reply: > 30 µM

Ask: Given the molecule CCC[C@@H]1C[C@@H](C(=O)N[C@@H]([C@H]2O[C@H](SC)[C@H](O)[C@@H](O)[C@H]2O)[C@@H](C)O)N(C)C1 [LINCOMYCIN] , what is its reported AC50?
Reply: > 10 µM

Ask: // returns reported AC50 for input COc1cc(C(=O)NC2CCCNC2)cc(OC)c1OC (stereo not given) [TROXIPIDE]
Reply: > 30 µM

Ask: What value of measured AC50 is listed for NNC(=O)c1ccncc1 [ISONIAZID] ?
Reply: > 30 µM

Ask: Quick one: AC50 for CC(O)(CS(=O)(=O)c1ccc(F)cc1)C(=O)Nc1ccc(C#N)c(C(F)(F)F)c1 (stereo not given) [BICALUTAMIDE] ?
Reply: > 30 µM

Ask: Returns the measured AC50 for the input molecule. Input: CCOC(=O)c1c(CSc2ccccc2)n(C)c2cc(Br)c(O)c(CN(C)C)c12 [UMIFENOVIR]
Reply: > 30 µM

Ask: Given the molecule CCc1cc2c(s1)-n1c(C)nnc1CN=C2c1ccccc1Cl [ETIZOLAM] , what is its reported AC50?
Reply: > 30 µM

Ask: # lookup: AC50 of O=C(/C=C/c1cccc(S(=O)(=O)Nc2ccccc2)c1)NO [BELINOSTAT]
Reply: > 30 µM

Ask: Bench note: what AC50 did Cc1onc(-c2c(F)cccc2Cl)c1C(=O)N[C@@H]1C(=O)N2[C@@H]1SC(C)(C)[C@@H]2C(=O)O [FLOXACILLIN] show?
Reply: > 30 µM

Ask: Item COC(=O)[C@H]1[C@H]2C[C@@H]3c4[nH]c5cc(OC)ccc5c4CCN3C[C@H]2C[C@@H](OC(=O)c2cc(OC)c(OC)c(OC)c2)[C@@H]1OC [RESERPINE] has what recorded AC50?
Reply: > 10 µM

Ask: Entry CCOc1nc2cccc(C(=O)O)c2n1Cc1ccc(-c2ccccc2-c2nnn[nH]2)cc1 : reported AC50 = ?
Reply: 0.0005 µM

Ask: Can you look up the measured AC50 of OC[C@H]1O[C@@H](Oc2cc(O)cc(/C=C/c3ccc(O)cc3)c2)[C@H](O)[C@@H](O)[C@@H]1O [PICEID] for me?
Reply: > 30 µM

Ask: Which AC50 value is on record for O=C(O)c1cccnc1Nc1cccc(C(F)(F)F)c1 [NIFLUMIC ACID] ?
Reply: > 10 µM

Ask: Query: AC50; subject: Fc1ccc([C@@H]2CCNC[C@H]2COc2ccc3c(c2)OCO3)cc1 [PAROXETINE]
Reply: > 30 µM

Ask: Report AC50 for CC(=O)Nc1ccc(CC(=O)O)cc1 [ACTARIT] please.
Reply: > 30 µM

Ask: Param item = Oc1cc(O)c(Cl)cn1 ; retrieve measured AC50.
Reply: > 30 µM

Ask: What value of measured AC50 is listed for CCOC(=O)C(C)(C)Oc1ccc(Cl)cc1 [CLOFIBRATE] ?
Reply: > 30 µM

Ask: State the recorded AC50 for this entry: CC1=C(C(=O)OC(C)C)C(c2cccc([N+](=O)[O-])c2)C(C(=O)OC2CN(C(c3ccccc3)c3ccccc3)C2)=C(N)N1 (stereo not given) [AZELNIDIPINE]
Reply: 12 µM

Ask: Need AC50, item C[C@]12CCC(=O)C[C@@H]1CC[C@@H]1[C@@H]2CC[C@]2(C)[C@@H](O)CC[C@@H]12 [STANOLONE]
Reply: > 30 µM

Ask: What value of AC50 has been reported for the following molecule? CCOC(=O)c1ncn2c1CN(C)C(=O)c1cc(F)ccc1-2 [FLUMAZENIL]
Reply: > 30 µM

Ask: Given the entry CC(C)(Oc1ccc(CCNC(=O)c2ccc(Cl)cc2)cc1)C(=O)O [BEZAFIBRATE] , report its measured AC50.
Reply: > 10 µM

Ask: I would be grateful if you could share the reported AC50 for CC(C)N(CCCCOCC(=O)O)c1cnc(-c2ccccc2)c(-c2ccccc2)n1 .
Reply: 17 µM

Ask: May I ask what AC50 has been recorded for CN(C)Cc1nnc2n1-c1ccc(Cl)cc1C(c1ccccc1)=NC2 [ADINAZOLAM] ?
Reply: > 10 µM

Ask: Please report the recorded AC50 for COc1ccc(C2C(=O)c3ccccc3C2=O)cc1 [ANISINDIONE] .
Reply: > 10 µM

Ask: So what's the measured AC50 for this one? C[C@]12C=CC(=O)C=C1CC[C@@H]1[C@@H]2CC[C@]2(C)OC(=O)CC[C@@H]12 [TESTOLACTONE]
Reply: > 10 µM

Ask: Data request, read-out AC50, for Clc1ccc(CCC(Cn2ccnc2)Sc2c(Cl)cccc2Cl)cc1 (stereo not given) [BUTOCONAZOLE]
Reply: 30 µM

Ask: Name the reported AC50 value associated with the molecule CCOC(=O)c1ccc(N)cc1 [BENZOCAINE]
Reply: > 10 µM

Ask: // query AC50 value for entry COc1cc(C(=O)NS(=O)(=O)c2ccccc2C)ccc1Cc1cn(C)c2ccc(NC(=O)OC3CCCC3)cc12 [ZAFIRLUKAST]
Reply: > 10 µM

Ask: Using the record for CC(C)(O/N=C(\C(=O)N[C@@H]1C(=O)N2C(C(=O)[O-])=C(C[n+]3ccccc3)CS[C@H]12)c1csc(N)n1)C(=O)O [CEFTAZIDIME] , report its AC50.
Reply: > 300 µM
